- System: F1 hybrid maize plants
- Assay: efficacy field trial for 2,4-D tolerance
- Type: in vivo
- Assay context: scale 0 to 100; 8 lb ae/acre at VE-V2, V4, V8; with CTP unless label says no CTP
Readout type: average injury rating, V8 Growth Stage, 8x 2,4-D

Would you kindly share the measured average injury rating, V8 Growth Stage, 8x 2,4-D for MON-HT2: engineered oxygenase protein, amino acid sequence SEQ ID NO:18 (protein) MHAALTPLTNKYRFIDVQPLTGVLGAEITGVDLREPLDDSTWNEILDAFHTYQVIYFPGQAITNEQHIAFSRRFGPVDPVPLLKSIEGYPEVQMIRREANESSRVIGDDWHSDSTFLDAPPAAVVMRAIEVPEYGGDTGFLSMYSAWETLSPTMQATIEGLNVVHSATKVFGSLYQATNWRFSNTSVKVMDVDAGDRETVHPLVVTHPVTGRRALYCNQVYCQKIQGMTDAESKSLLQFLYEHATKFDFTCRVRWKKDQVLVWDNLCTMHRAAPDYAGKFRYLTRTTVAGDKPSR ? 10.0

Would you kindly share the measured average injury rating, V8 Growth Stage, 8x 2,4-D for MON-HT6: engineered oxygenase protein, amino acid sequence SEQ ID NO:31 (protein) MHAALSPLSQKYRFIDVQPLTGVLGAEITGVTLREPLDDNTWNEILDAFHTYQVIYFPGQAITNEQHIAFSRRFGPVDPVPLLKSIEGYPEVQMIRREANESGRVIGDDWHTDSTFLDAPPAAVVMYAREVPPYGGDTGFLSMYSAWDTLSDTMKATIEGLNVVHSATRVFGSLYQAQNRRFSNTSVKVMDVDAGDRETVHPLVVSHPVTGRRALYCNQVYCQRIEGMTDAESKPLLQFLYEHATRFDFTCRVRWKKDQVLVWDNLCTMHRAVPDYAGKFRYLTRTTVAGDKPSR ? 11.3

Would you kindly share the measured average injury rating, V8 Growth Stage, 8x 2,4-D for MON-HT7: engineered oxygenase protein, amino acid sequence SEQ ID NO:34 (protein) MHAALTPLTNKYRFIDVQPLTGVLGAEITGVDLREPLDDSTWNEILDAFHTYQVIYFPGQAITNEQHIAFSRRFGPVDPVPLLKSIEGYPEVQMIRREANESGRVIGDDWHADSTFLDAPPAAVVMRAIEVPEYGGDTGFLSMYSAWETLSPTMQATIEGLNVVHSATKVFGSLYQATNWRFSNTSVKVMDVDAGDRETVHPLVVTHPVTGRRALYCNQVYCQKIQGMTDAESKSLLQFLYEHATKFDFTCRVRWKKDQVLVWDNLCTMHRSVPDYAGKFRYLTRTTVAGDKPSR ? 9.3
